These measurements were taken from patent US20220089636A1.

- Measured on: α1β2γ2 GABAA receptor (Homo sapiens, UniProt P14867+P47870)
- Construct: expressed in transfected cells
- Sequence (P14867 28-456): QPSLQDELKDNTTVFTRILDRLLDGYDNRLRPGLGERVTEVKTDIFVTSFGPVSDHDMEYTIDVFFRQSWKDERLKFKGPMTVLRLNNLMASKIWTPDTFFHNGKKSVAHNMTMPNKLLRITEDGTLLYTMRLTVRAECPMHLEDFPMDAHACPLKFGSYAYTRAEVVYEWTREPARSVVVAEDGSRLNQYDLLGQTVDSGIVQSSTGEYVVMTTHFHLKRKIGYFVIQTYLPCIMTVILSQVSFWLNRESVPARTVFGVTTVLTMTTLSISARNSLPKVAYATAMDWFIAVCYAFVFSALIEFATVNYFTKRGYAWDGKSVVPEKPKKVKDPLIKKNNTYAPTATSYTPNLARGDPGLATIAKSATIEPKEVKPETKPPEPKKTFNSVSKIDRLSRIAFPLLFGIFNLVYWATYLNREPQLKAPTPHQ
- Sequence (P47870 25-512 limits assumed): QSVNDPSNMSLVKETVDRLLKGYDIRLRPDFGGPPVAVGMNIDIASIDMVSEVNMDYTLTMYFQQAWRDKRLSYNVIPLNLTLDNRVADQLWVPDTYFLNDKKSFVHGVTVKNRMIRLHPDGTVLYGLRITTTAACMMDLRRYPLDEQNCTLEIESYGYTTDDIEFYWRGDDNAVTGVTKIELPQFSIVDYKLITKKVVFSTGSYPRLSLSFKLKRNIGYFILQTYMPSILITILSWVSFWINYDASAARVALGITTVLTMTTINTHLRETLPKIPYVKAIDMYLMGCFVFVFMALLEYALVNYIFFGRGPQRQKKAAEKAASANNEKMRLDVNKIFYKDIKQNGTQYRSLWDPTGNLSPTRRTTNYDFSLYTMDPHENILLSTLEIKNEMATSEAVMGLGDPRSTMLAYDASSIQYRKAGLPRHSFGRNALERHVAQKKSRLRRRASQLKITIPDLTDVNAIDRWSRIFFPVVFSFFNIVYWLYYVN
- Sequence (P18507 40-475 partner): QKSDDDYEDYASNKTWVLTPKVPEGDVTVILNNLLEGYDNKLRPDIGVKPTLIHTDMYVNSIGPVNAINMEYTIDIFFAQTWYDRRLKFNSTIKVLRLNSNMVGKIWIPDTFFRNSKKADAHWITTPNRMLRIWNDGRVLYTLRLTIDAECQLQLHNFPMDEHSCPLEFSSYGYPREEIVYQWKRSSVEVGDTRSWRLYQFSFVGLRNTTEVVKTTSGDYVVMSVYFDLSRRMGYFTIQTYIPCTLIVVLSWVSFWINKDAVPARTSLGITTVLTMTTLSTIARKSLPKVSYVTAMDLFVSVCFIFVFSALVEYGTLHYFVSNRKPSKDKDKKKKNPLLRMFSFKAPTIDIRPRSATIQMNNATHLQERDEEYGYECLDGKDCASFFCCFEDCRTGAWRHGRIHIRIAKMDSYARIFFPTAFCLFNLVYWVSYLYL
- Assay procedure: Patch clamp electrophysiology assay of recombinant α1β2γ2 GABAA receptors (potentiation of 2 μM GABA-evoked Cl- current)
- Assay type: cell-based
- Assay setup: HEK-293T; HEK293T cells stably transfected with α1β2γ2 GABAA; potentiation of 2 μM GABA current
Metric name: Emax (%)
Expressed in %, but write only the number.

For C[C@@]1(O)CC[C@H]2[C@H](CC[C@@H]3[C@@H]2CC[C@]2(C)[C@@H](C(=O)Cn4nnn(-c5cocn5)c4=O)CC[C@@H]32)C1 , write its Emax.
698

Input C[C@@]1(O)CC[C@H]2[C@H](CC[C@@H]3[C@@H]2CC[C@]2(C)[C@@H](C(=O)Cn4nnn(-c5cccnc5)c4=O)CC[C@@H]32)C1 , output reported Emax.
757

Give me measured Emax, please, for this compound: C[C@@]1(O)CC[C@H]2[C@H](CC[C@@H]3[C@@H]2CC[C@]2(C)[C@@H](C(=O)Cn4nnn(-c5ccc(F)cc5)c4=O)CC[C@@H]32)C1
795

Report Emax for C[C@@]1(O)CC[C@H]2[C@H](CC[C@@H]3[C@@H]2CC[C@]2(C)[C@@H](C(=O)Cn4nnn(-c5cccc(C#N)c5)c4=O)CC[C@@H]32)C1
974

Tell me Emax reported for COc1cccc(-n2nnn(CC(=O)[C@H]3CC[C@H]4[C@@H]5CC[C@@H]6C[C@](C)(O)CC[C@@H]6[C@H]5CC[C@]34C)c2=O)c1
578

###

Give measured bioavailability for each item. Keep answers brief.
- Assay procedure: Mouse PK study (i.v. and p.o.)
- Format: in vivo
- Assay setup: plasma, po, male CD1 mice, 5 mg/kg p.o. vs 1 mg/kg i.v.
Give the value in % but do not write % after it.

Supply recorded bioavailability for C[C@@]1(O)CC[C@H]2[C@H](CC[C@@H]3[C@@H]2CC[C@]2(C)[C@@H](C(=O)Cn4nnn(-c5cccc(C#N)c5)c4=O)CC[C@@H]32)C1 [Example 14] here.
28.9

Entry C[C@@]1(O)CC[C@H]2[C@H](CC[C@@H]3[C@@H]2CC[C@]2(C)[C@@H](C(=O)Cn4nnn(-c5ccc(F)cc5)c4=O)CC[C@@H]32)C1 [Example 11] needs its bioavailability filled in; supply it.
52.3

Read the entry COc1ccc(-n2nnn(CC(=O)[C@H]3CC[C@H]4[C@@H]5CC[C@@H]6C[C@](C)(O)CC[C@@H]6[C@H]5CC[C@]34C)c2=O)cc1 [Example 15] and write its reported bioavailability.
10.8

Return reported bioavailability. Input molecule: C[C@@]1(O)CC[C@H]2[C@H](CC[C@@H]3[C@@H]2CC[C@]2(C)[C@@H](C(=O)Cn4nnn(CC5CC5)c4=O)CC[C@@H]32)C1 [Example 7]
27.6

Answer with reported bioavailability of Cn1nnn(CC(=O)[C@H]2CC[C@H]3[C@@H]4CC[C@@H]5C[C@](C)(O)CC[C@@H]5[C@H]4CC[C@]23C)c1=O [Example 2]
66.3

Return bioavailability for the following molecule: C[C@@]1(O)CC[C@H]2[C@H](CC[C@@H]3[C@@H]2CC[C@]2(C)[C@@H](C(=O)Cn4nnn(-c5ccc(C#N)cc5)c4=O)CC[C@@H]32)C1 [Example 13]
41.5

Check the records and state bioavailability for C[C@@]1(O)CC[C@H]2[C@H](CC[C@@H]3[C@@H]2CC[C@]2(C)[C@@H](C(=O)Cn4nnn(-c5ccccc5)c4=O)CC[C@@H]32)C1 [Example 10]
60.5

Tell me bioavailability reported for C[C@@]1(O)CC[C@H]2[C@H](CC[C@@H]3[C@@H]2CC[C@]2(C)[C@@H](C(=O)Cn4nnn(C5CCCC5)c4=O)CC[C@@H]32)C1 [Example 8]
4.48

Provide measured bioavailability value, entry: C[C@@]1(O)CC[C@H]2[C@H](CC[C@@H]3[C@@H]2CC[C@]2(C)[C@@H](C(=O)Cn4nnn(-c5ccncc5)c4=O)CC[C@@H]32)C1 [Example 17]
101

Provide bioavailability value for the following molecule: C[C@@]1(O)CC[C@H]2[C@H](CC[C@@H]3[C@@H]2CC[C@]2(C)[C@@H](C(=O)Cn4nnn(-c5cn[nH]c5)c4=O)CC[C@@H]32)C1 [Example 28]
77.3

Provide only the value of recorded bioavailability for C[C@@]1(O)CC[C@H]2[C@H](CC[C@@H]3[C@@H]2CC[C@]2(C)[C@@H](C(=O)Cn4nnn(-c5cocn5)c4=O)CC[C@@H]32)C1 [Example 24]
172

For the molecule Cn1ccc(-n2nnn(CC(=O)[C@H]3CC[C@H]4[C@@H]5CC[C@@H]6C[C@](C)(O)CC[C@@H]6[C@H]5CC[C@]34C)c2=O)n1 [Example 27] , report bioavailability.
153

Identify bioavailability associated with the molecule C[C@@]1(O)CC[C@H]2[C@H](CC[C@@H]3[C@@H]2CC[C@]2(C)[C@@H](C(=O)Cn4nnn(C(F)(F)F)c4=O)CC[C@@H]32)C1 [Example 22]
34.2

###

- Measured on: α1β2γ2 GABAA receptor (Homo sapiens, UniProt P14867+P47870)
- Assay procedure: Patch clamp electrophysiology assay of recombinant α1β2γ2 GABAA receptors (potentiation of 2 μM GABA-evoked Cl- current)
- Assay setup: HEK293T cells stably transfected with α1β2γ2 GABAA; whole cell, 2 μM GABA, -80 mV
Kindly supply the reported EC50 values for the records listed here.
Value expressed in nM; do not type the unit.

Give the value of EC50 reported for the following: C[C@@]1(O)CC[C@H]2[C@H](CC[C@@H]3[C@@H]2CC[C@]2(C)[C@@H](C(=O)Cn4nnn(C5CCCC5)c4=O)CC[C@@H]32)C1
95

Determine its reported EC50: C[C@@]1(O)CC[C@H]2[C@H](CC[C@@H]3[C@@H]2CC[C@]2(C)[C@@H](C(=O)Cn4nnn(C(F)(F)F)c4=O)CC[C@@H]32)C1
14

# return recorded EC50 for entry COc1ccc(-n2nnn(CC(=O)[C@H]3CC[C@H]4[C@@H]5CC[C@@H]6C[C@](C)(O)CC[C@@H]6[C@H]5CC[C@]34C)c2=O)cc1
5

Specify measured EC50 for Cn1nnn(CC(=O)[C@H]2CC[C@H]3[C@@H]4CC[C@@H]5C[C@](C)(O)CC[C@@H]5[C@H]4CC[C@]23C)c1=O .
110

# return recorded EC50 for entry C[C@@]1(O)CC[C@H]2[C@H](CC[C@@H]3[C@@H]2CC[C@]2(C)[C@@H](C(=O)Cn4nnn(-c5ccn[nH]5)c4=O)CC[C@@H]32)C1
130

Specify EC50 for C[C@@]1(O)CC[C@H]2[C@H](CC[C@@H]3[C@@H]2CC[C@]2(C)[C@@H](C(=O)Cn4nnn(-c5cnco5)c4=O)CC[C@@H]32)C1 and stop.
96

Look up and state reported EC50 for C[C@@]1(O)CC[C@H]2[C@H](CC[C@@H]3[C@@H]2CC[C@]2(C)[C@@H](C(=O)Cn4nnn(-c5cccnc5)c4=O)CC[C@@H]32)C1
39

State its EC50 for this compound: C[C@@]1(O)CC[C@H]2[C@H](CC[C@@H]3[C@@H]2CC[C@]2(C)[C@@H](C(=O)Cn4nnn(C5CC5)c4=O)CC[C@@H]32)C1
660

Name the recorded EC50 of the compound listed here: C[C@@]1(O)CC[C@H]2[C@H](CC[C@@H]3[C@@H]2CC[C@]2(C)[C@@H](C(=O)Cn4nnn(C5CCCCC5)c4=O)CC[C@@H]32)C1
1380

Kindly indicate its recorded EC50. Item: COc1cccc(-n2nnn(CC(=O)[C@H]3CC[C@H]4[C@@H]5CC[C@@H]6C[C@](C)(O)CC[C@@H]6[C@H]5CC[C@]34C)c2=O)c1
5.4

Consider the compound C[C@@]1(O)CC[C@H]2[C@H](CC[C@@H]3[C@@H]2CC[C@]2(C)[C@@H](C(=O)Cn4nnn(-c5cn[nH]c5)c4=O)CC[C@@H]32)C1 and give its recorded EC50.
140

# return recorded EC50 for input C[C@@]1(O)CC[C@H]2[C@H](CC[C@@H]3[C@@H]2CC[C@]2(C)[C@@H](C(=O)Cn4nnn(-c5ccccc5)c4=O)CC[C@@H]32)C1
27

Identify EC50 associated with the compound Cn1ccc(-n2nnn(CC(=O)[C@H]3CC[C@H]4[C@@H]5CC[C@@H]6C[C@](C)(O)CC[C@@H]6[C@H]5CC[C@]34C)c2=O)n1
120

Give reported EC50 value for C[C@@]1(O)CC[C@H]2[C@H](CC[C@@H]3[C@@H]2CC[C@]2(C)[C@@H](C(=O)Cn4nn[nH]c4=O)CC[C@@H]32)C1
24000

Give the reported EC50 for this compound. C[C@@]1(O)CC[C@H]2[C@H](CC[C@@H]3[C@@H]2CC[C@]2(C)[C@@H](C(=O)Cn4nnn(-c5cccc(F)c5)c4=O)CC[C@@H]32)C1
9.3

# return recorded EC50 for input C[C@@]1(O)CC[C@H]2[C@H](CC[C@@H]3[C@@H]2CC[C@]2(C)[C@@H](C(=O)Cn4nnn(CC#N)c4=O)CC[C@@H]32)C1
560

Return EC50 for the following compound: Cn1nccc1-n1nnn(CC(=O)[C@H]2CC[C@H]3[C@@H]4CC[C@@H]5C[C@](C)(O)CC[C@@H]5[C@H]4CC[C@]23C)c1=O
64
